# Details: deionized water, 100° C., molar ratio of CaCO3
Attribute Measured: hydrolysis / reaction rate (comparison in words)

>>> reported_value("CC(=O)OCC(O)COC(C)=O")
"very similar"
>>> reported_value("CC(=O)OCC(COC(C)=O)OC(C)=O")
"very similar"

Each recorded value in this set is attributed to patent US7431088B2.
